- Tested on: SK-MEL-2 melanoma
- Run description: NCI-60 one-dose screen, 48 h (100 = growth as untreated, 0 = no growth, -100 = all killed)
- Test conditions: 10 µM unless noted
About 83,000 compounds went through this panel and 20% of them were active in at least one assay; those are over-represented in the sample as a whole.
Attribute: growth
Field format: number, assumed %, no unit text.

Nc1cc(N)c2nc(-c3ccccc3)c(NCCc3ccc(Cl)c(Cl)c3)nc2c1 ... -62.7

Answer with the recorded growth for the molecule listed here: Clc1ccc(N/N=C(\c2ccccc2)c2ccccn2)nc1
36.4

Answer with the recorded growth for the molecule listed here: COc1cc2oc(-c3ccc(NC(=O)c4ccccc4)cc3)cc(=O)c2c(OC)c1OC
92.1

Answer with the recorded growth for the molecule listed here: COc1cc(CNC(=O)CCCC/C=C/C(C)C)ccc1OCc1nnc(Nc2ccccc2F)o1
111

Answer with the recorded growth for the molecule listed here: N=C(N)N=Nc1ccc(NN=C(N)N)c2ccccc12
104

Answer with the recorded growth for the molecule listed here: O=C1c2cc([N+](=O)[O-])ccc2-c2cc(Cl)c(NC(=O)C(F)(F)F)cc21
97.1

Answer with the recorded growth for the molecule listed here: CCCCCCCCC1OC1CCCCCCCC(=O)O (stereo not given)
103

Answer with the recorded growth for the molecule listed here: CCOC(=O)c1ccc2n1CCCc1cnc(NC(C)=O)nc1-2
102

Answer with the recorded growth for the molecule listed here: [2H]c1nc(=Nc2cc(NC(=O)C=C)c(N(C)CCN(C)C)cc2OC)[nH]c(-c2cn(C([2H])([2H])[2H])c3ccccc23)c1[2H]
55.8

Answer with the recorded growth for the molecule listed here: CCOc1ccc(N(C)c2ccc(/C=C/C3=[N+](C)c4ccccc4C3(C)C)cc2)cc1
-45.9
